Parameter: pIC50. Scope: all listed entries.
EXPERIMENTAL_SYSTEM: TAK1-TAB1 fusion protein (Homo sapiens, UniProt O43318)
Construct: purchased Carna
Sequence (O43318 with tags, fused parts or gaps limits assumed): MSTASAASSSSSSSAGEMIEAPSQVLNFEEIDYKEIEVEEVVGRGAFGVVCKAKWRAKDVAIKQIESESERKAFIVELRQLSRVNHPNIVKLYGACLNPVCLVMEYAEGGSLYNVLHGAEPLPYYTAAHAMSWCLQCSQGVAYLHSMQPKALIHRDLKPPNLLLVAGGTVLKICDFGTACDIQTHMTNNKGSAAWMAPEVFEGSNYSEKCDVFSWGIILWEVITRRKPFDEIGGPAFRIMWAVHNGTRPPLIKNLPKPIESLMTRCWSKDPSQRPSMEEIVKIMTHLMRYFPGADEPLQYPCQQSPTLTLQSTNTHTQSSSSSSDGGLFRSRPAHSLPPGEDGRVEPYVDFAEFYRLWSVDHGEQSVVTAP
METHOD_DESCRIPTION: TAK1 biochemical assay (AlphaScreen, GST-MAP2K7 substrate)
CONDITION_NOTES: TAK1-TAB1 fusion protein, GST-MAP2K7 substrate; read-out: mean TAK1 IC50 (Col. A)
pIC50: −log10 of the molar value. Where a name gives a salt, the structure may show the parent alone.

| COMPOUND | pIC50 |
| --- | --- |
| CC(=O)N1CCC(n2cc(-c3cnc(N)c4oc(-c5ccc6[nH]ncc6c5)cc34)cn2)CC1 [Example 94] | 6.00 to 7.00 |
| CC(=O)N1CCC(n2cc(-c3cnc(N)c4oc(-c5c[nH]c6cc(C#N)ccc56)cc34)cn2)CC1 [Example 222] | 6.00 to 7.00 |
| Nc1ncc(-c2cnn(C3CCNCC3)c2)c2c(Cl)c(-c3cccc4ccsc34)oc12 [Example 13, hydrochloride] | > 7.00 |
| CC(=O)N1CCC(n2cc(-c3cnc(N)c4oc(-c5ccnc6cc(Cl)ccc56)cc34)cn2)CC1 [Example 409] | 5.00 to 6.00 |
| CC(=O)N1CCC(n2cc(-c3cnc(N)c4oc(-c5cccc6c5OC(F)(F)O6)cc34)cn2)CC1 [Example 191] | 6.00 to 7.00 |
| CC(=O)N1CCC(n2cc(-c3cnc(N)c4oc(-c5csc6c(F)nccc56)cc34)cn2)CC1 [Example 256, trifluoroacetic acid salt] | 6.00 to 7.00 |
| Nc1ncc(-c2cnn([C@H]3CC[C@H](O)CC3)c2)c2cc(-c3ccc4[nH]ncc4c3)oc12 [Example 402] | 6.00 to 7.00 |

* * *

EXPERIMENTAL_SYSTEM: TAK1-TAB1 fusion protein (Homo sapiens)
Construct: purchased Carna
METHOD_DESCRIPTION: TAK1 biochemical assay (AlphaScreen, GST-MAP2K7 substrate)
CONDITION_NOTES: TAK1-TAB1 fusion protein, GST-MAP2K7 substrate; read-out: mean TAK1 IC50 (Col. A)
Parameter: IC50. Scope: all listed entries.

| MOLECULE | IC50 |
| --- | --- |
| Cc1ccc(-c2cnc(N)c3oc(-c4csc5cnccc45)cc23)o1 | 1000 to 10000 nM |
| CC(=O)N1CCC(n2cc(-c3cnc(N)c4oc(-c5cccc(OCc6cccc(Cl)c6)c5)cc34)cn2)CC1 | > 10000 nM |
| CC(=O)N1CCC(n2cc(-c3cnc(N)c4oc(-c5ccc(NS(C)(=O)=O)cc5)cc34)cn2)CC1 | 1000 to 10000 nM |
| CC(=O)N1CCC(n2cc(-c3cnc(N)c4oc(-c5cccc6cnccc56)cc34)cn2)CC1 | 100 to 1000 nM |
| Cn1cnc(-c2cnc(N)c3oc(-c4csc5cnccc45)cc23)c1 | > 10000 nM |
| CC(=O)N1CCC(n2cc(-c3cnc(N)c4oc(-c5cccc(N(C)C)c5)cc34)cn2)CC1 | 1000 to 10000 nM |
| Nc1ncc(-c2cnn([C@H]3CC[C@H](O)CC3)c2)c2cc(-c3ccc4c(c3)CNC4=O)oc12 | 1000 to 10000 nM |
| Nc1ncc(-c2cnn([C@H]3CC[C@H](O)CC3)c2)c2cc(-c3ccc4c(c3)CC(=O)N4)oc12 | 1000 to 10000 nM |
| Nc1ncc(-c2cnn(C3CCN(C(=O)Nc4cccc5c4CCCC5)CC3)c2)c2cc(-c3cccc4cnsc34)oc12 | 100 to 1000 nM |
| CC(C)Oc1cccc(/C=C/C(=O)N2CCC(n3cc(-c4cnc(N)c5oc(-c6cccc7cnsc67)cc45)cn3)CC2)c1 | 1000 to 10000 nM |
| Nc1ncc(-c2cnn([C@H]3CC[C@H](O)CC3)c2)c2cc(-c3csc4cnccc34)oc12 | < 100 nM |
| CS(=O)(=O)Nc1cccc(-c2cc3c(-c4cnn(C5CCNCC5)c4)cnc(N)c3o2)c1 | 1000 to 10000 nM |
| CC(=O)N1CCC(n2cc(-c3cnc(N)c4oc(-c5ccc6c(c5)NC(=O)C6)cc34)cn2)CC1 | 1000 to 10000 nM |
| Nc1ncc(-c2cnn(C3CCNCC3)c2)c2cc(-c3cccc4c3sc3ccccc34)oc12 | 100 to 1000 nM |

* * *

Parameter: pIC50. Scope: all listed entries.
System: p-p38 in HCT-116 cells
METHOD_DESCRIPTION: Phospho-p38 Meso Scale ELISA assay, TNFα-stimulated HCT-116 cells
Format: cell-based
CONDITION_NOTES: Homo sapiens, read-out: mean HCT-116 p-p38 ELISA IC50 (Col. C)
pIC50: −log10 of the molar value. Structures can show the parent of a compound that is named as a salt.
RECORDED_METRIC: pIC50

| MOLECULE | REPORTED_RESULT |
| --- | --- |
| CC(=O)N1CCC(n2cc(-c3cnc(N)c4oc(-c5ccc6c(c5)CNC6=O)cc34)cn2)CC1 | < 5.00 |
| CC(=O)N1CCC(n2cc(-c3cnc(N)c4oc(-c5ccccc5CC#N)cc34)cn2)CC1 | 6.00 to 7.00 |
| CC(=O)N1CCC(n2cc(-c3cnc(N)c4oc(-c5cccc6c5CC(=O)N6)cc34)cn2)CC1 | 5.00 to 6.00 |
| CC(=O)N1CCC(n2cc(-c3cnc(N)c4oc(-c5ccc(O)c(F)c5)cc34)cn2)CC1 | 5.00 to 6.00 |
| Nc1ncc(-c2cnn([C@H]3CC[C@H](O)CC3)c2)c2cc(-c3cccc4cnccc34)oc12 | 6.00 to 7.00 |
| CC(=O)N1CCC(n2cc(-c3cnc(N)c4oc(-c5cccc6nnsc56)cc34)cn2)CC1 [Example 224, diformate salt] | > 7.00 |
| CC(C)(C)OC(=O)N1CCC(n2cc(-c3cnc(N)c4oc(-c5cccc6cnsc56)cc34)cn2)CC1 | 5.00 to 6.00 |
| CC(=O)N1CCC(n2cc(-c3cnc(N)c4oc(-c5ccc6[nH]nnc6c5)cc34)cn2)CC1 | < 5.00 |

* * *

Parameter: IC50. Scope: all listed entries.
Test system: pJNK in HCT-116 cells
METHOD_DESCRIPTION: Phospho-JNK (Thr183/Tyr185) Meso Scale ELISA assay, TNFα-stimulated HCT-116 cells
Format: cell-based
CONDITION_NOTES: Homo sapiens, read-out: mean HCT-116 pJNK ELISA IC50 (Col. B)
Structures can show the parent of a compound that is named as a salt.
RECORDED_METRIC: IC50

| COMPOUND | RECORDED_METRIC | REPORTED_RESULT |
| --- | --- | --- |
| Nc1ncc(-c2cnn([C@H]3CC[C@H](O)CC3)c2)c2cc(-c3cncc4cnsc34)oc12 [Example 267, Diformate Salt] | IC50 | < 0.1 µM |
| CC(=O)N1CCC(n2cc(-c3cnc(N)c4oc(-c5csc6cnc(O)cc56)cc34)cn2)CC1 [Example 251, bis(trifluoroacetate)] | IC50 | 1 to 10 µM |
| CC(=O)N1CCC(n2cc(-c3cnc(N)c4oc(-c5ccsc5)cc34)cn2)CC1 | IC50 | 1 to 10 µM |
| Nc1ncc(-c2cnn([C@@H]3C[C@H]4CC[C@@H](C3)N4)c2)c2cc(-c3csc4cnccc34)oc12 | IC50 | 0.1 to 1 µM |
| CC(=O)N1CCC(n2cc(-c3cnc(N)c4oc(-c5cccc6cnccc56)cc34)cn2)CC1 | IC50 | 0.1 to 1 µM |
| Nc1ncc(-c2cnn([C@H]3CC[C@H](O)CC3)c2)c2c(Cl)c(-c3cccc4ncsc34)oc12 | IC50 | < 0.1 µM |
